Listed below: pIC50 values for each entry.
system.name: adenosine A2A receptor (Homo sapiens (Human))
Sequence (P29274 whole entry): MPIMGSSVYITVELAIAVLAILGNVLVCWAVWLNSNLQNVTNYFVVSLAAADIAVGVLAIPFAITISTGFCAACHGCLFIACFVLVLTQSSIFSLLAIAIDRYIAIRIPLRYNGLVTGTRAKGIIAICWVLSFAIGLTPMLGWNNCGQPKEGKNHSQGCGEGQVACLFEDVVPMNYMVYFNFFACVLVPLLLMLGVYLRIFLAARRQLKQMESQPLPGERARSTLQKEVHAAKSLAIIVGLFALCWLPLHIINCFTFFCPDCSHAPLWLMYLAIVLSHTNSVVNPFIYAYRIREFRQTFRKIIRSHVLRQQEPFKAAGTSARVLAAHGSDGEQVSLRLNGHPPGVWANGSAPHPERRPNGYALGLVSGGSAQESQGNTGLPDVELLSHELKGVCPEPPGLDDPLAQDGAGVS
assay.overview: Adenosine receptor activity assay (Table 1), A2A activity
Type: biochemical
condition.summary: read-out: Ave A2A cAMP IC50
pIC50: −log10 of the molar value.

>  <molecule>
Cc1cc2nc(N[C@@H](C)c3cccnc3)nc(C(=O)NC[C@@H](C)O)c2s1

>  <system.name>
adenosine A2A receptor (Homo sapiens (Human))

>  <pIC50>
6.30 to 7.00

$$$$
>  <molecule>
O=C(c1nc(NCc2cncc(F)c2)nc2ccsc12)N1CC(O)C1

>  <system.name>
adenosine A2A receptor (Homo sapiens (Human))

>  <pIC50>
< 6.30

$$$$
>  <molecule>
CS(=O)(=O)[C@@H]1CCN(C(=O)c2nc(NCc3cncc(F)c3)nc3ccsc23)C1

>  <system.name>
adenosine A2A receptor (Homo sapiens (Human))

>  <pIC50>
< 6.30

$$$$
>  <molecule>
CCC(Nc1nc(C(=O)N2CCCC2)c2sccc2n1)c1cccnc1 (centres unmarked)

>  <system.name>
adenosine A2A receptor (Homo sapiens (Human))

>  <pIC50>
6.30 to 7.00

$$$$
>  <molecule>
COc1cncc(CNc2nc(C(=O)N3CC(C)C3)c3sccc3n2)c1

>  <system.name>
adenosine A2A receptor (Homo sapiens (Human))

>  <pIC50>
< 6.30

$$$$
>  <molecule>
CC(C)(C)OC(=O)N[C@H]1CCN(C(=O)c2nc(NCc3cncc(F)c3)nc3ccsc23)C1

>  <system.name>
adenosine A2A receptor (Homo sapiens (Human))

>  <pIC50>
6.30 to 7.00

$$$$
>  <molecule>
COc1ccc(CCCNC(=O)c2nc(N[C@@H](C)c3cncc(F)c3)nc3ccsc23)cc1

>  <system.name>
adenosine A2A receptor (Homo sapiens (Human))

>  <pIC50>
6.30 to 7.00

$$$$
>  <molecule>
C[C@H](Nc1nc(C(=O)N2CC[C@@H](N)C2)c2sccc2n1)c1cccnc1

>  <system.name>
adenosine A2A receptor (Homo sapiens (Human))

>  <pIC50>
< 6.30

$$$$

###

system.name: adenosine A2A receptor (Homo sapiens (Human))
assay.overview: Adenosine receptor activity assay (Table 1), A2A activity
Format: biochemical
condition.summary: read-out: Ave A2A cAMP IC50
Measured IC50, listed per entry for reference.

>  <structure.string>
COC[C@H](Nc1nc(C(=O)NC[C@@H](C)O)c2sccc2n1)c1cccnc1

>  <IC50>
> 500 nM

$$$$
>  <structure.string>
Cc1cc2nc(N[C@@H](C)c3ccccn3)nc(C(=O)NCCO)c2s1

>  <IC50>
100 to 500 nM

$$$$
>  <structure.string>
CO[C@H]1CCN(C(=O)c2nc(N[C@@H](C)c3cncc(Cl)c3)nc3ccsc23)C1

>  <IC50>
100 to 500 nM

$$$$
>  <structure.string>
Cc1cc2nc(N[C@@H](C)c3cccnc3)nc(C(=O)NC[C@H]3CCOC3)c2s1

>  <IC50>
> 500 nM

$$$$
>  <structure.string>
COc1cncc(CNc2nc(C(=O)N3CC(O)C3)c3sccc3n2)c1

>  <IC50>
> 500 nM

$$$$
>  <structure.string>
C[C@H](O)CNC(=O)c1nc(N[C@@H](C)c2ccccn2)nc2ccsc12

>  <IC50>
100 to 500 nM

$$$$
>  <structure.string>
Cc1csc2c(C(=O)N3CC(NC(=O)C(C)(C)C)C3)nc(N[C@@H](C)c3ccccn3)nc12

>  <IC50>
10 to 50 nM

$$$$
>  <structure.string>
Cc1cc2nc(N[C@@H](C)c3cncc(F)c3)nc(C(=O)N3CC(CNC(=O)CC(C)(C)C)C3)c2s1

>  <IC50>
50 to 100 nM

$$$$
